- testDetails: NCI Yeast Anticancer Drug Screen. Data for the rad50 strain (AID 155)
- conditionParameters: S. cerevisiae rad50 strain growth inhibition; at 33.0 µM
The panel holds about 79,000 compounds, 15% with a hit somewhere; the sample as a whole holds those more often. The source made the active and inactive calls. Rule as the data show it: active = growth inhibition above about 70%; inactive = the rest.
Labels: true = active, false = inactive

{"columns": ["molecule", "assignedLabel"],
 "data": [
  ["O=C1C(/C=C/c2ccc(Cl)cc2)=NNC2N1N=C1NC(=O)C3(NN12)c1ccccc1-c1ccccc13 (stereo not given)", "false"],
  ["CC/C(=C(\\c1ccccc1)c1ccc(OCC[N+](C)(C)C)cc1)c1ccccc1", "true"],
  ["NC(=S)N1N=C2c3ccccc3CC[C@@H]2[C@@H]1c1ccccc1", "false"],
  ["NC(N)=NS(=O)(=O)c1ccc(Nc2c3ccccc3nc3c(C(=O)NC(CO)(CO)CO)cccc23)cc1", "false"],
  ["O=C1C=C(NCCc2cc(Br)c(O)c(Br)c2)C(=O)c2ncccc21", "true"],
  ["Cc1oc2ccccc2c(=O)c1Cn1nnc2ccccc21", "false"],
  ["CC1(C)CC(=O)C(C(=O)Nc2cccs2)=C(O)C1", "true"],
  ["COc1ccc2nc3cccc([N+](=O)[O-])c3c(NCCNCCO)c2c1", "true"],
  ["CC(C)OP(=O)(OC(C)C)C(=NCCO)NNc1ccc([N+](=O)[O-])cc1", "false"],
  ["CCOC(=O)C(Cc1c2ccccc2cc2ccccc12)(NC(C)=O)C(=O)OCC", "false"]
]}

Where do the numbers come from? From PubChem BioAssay (NCI).
